# target-entity: T1, chimeric CD45RB (full length human CD45RB with the macaque RB exon) transiently expressed in CHO cells (human; macaque, UniProt P08575-9 26-33; P08575-9 81-1192)
# T1 construct: whole chimeric protein on CHO cells; also called Macaque CD45RB CHO
# T1 sequence: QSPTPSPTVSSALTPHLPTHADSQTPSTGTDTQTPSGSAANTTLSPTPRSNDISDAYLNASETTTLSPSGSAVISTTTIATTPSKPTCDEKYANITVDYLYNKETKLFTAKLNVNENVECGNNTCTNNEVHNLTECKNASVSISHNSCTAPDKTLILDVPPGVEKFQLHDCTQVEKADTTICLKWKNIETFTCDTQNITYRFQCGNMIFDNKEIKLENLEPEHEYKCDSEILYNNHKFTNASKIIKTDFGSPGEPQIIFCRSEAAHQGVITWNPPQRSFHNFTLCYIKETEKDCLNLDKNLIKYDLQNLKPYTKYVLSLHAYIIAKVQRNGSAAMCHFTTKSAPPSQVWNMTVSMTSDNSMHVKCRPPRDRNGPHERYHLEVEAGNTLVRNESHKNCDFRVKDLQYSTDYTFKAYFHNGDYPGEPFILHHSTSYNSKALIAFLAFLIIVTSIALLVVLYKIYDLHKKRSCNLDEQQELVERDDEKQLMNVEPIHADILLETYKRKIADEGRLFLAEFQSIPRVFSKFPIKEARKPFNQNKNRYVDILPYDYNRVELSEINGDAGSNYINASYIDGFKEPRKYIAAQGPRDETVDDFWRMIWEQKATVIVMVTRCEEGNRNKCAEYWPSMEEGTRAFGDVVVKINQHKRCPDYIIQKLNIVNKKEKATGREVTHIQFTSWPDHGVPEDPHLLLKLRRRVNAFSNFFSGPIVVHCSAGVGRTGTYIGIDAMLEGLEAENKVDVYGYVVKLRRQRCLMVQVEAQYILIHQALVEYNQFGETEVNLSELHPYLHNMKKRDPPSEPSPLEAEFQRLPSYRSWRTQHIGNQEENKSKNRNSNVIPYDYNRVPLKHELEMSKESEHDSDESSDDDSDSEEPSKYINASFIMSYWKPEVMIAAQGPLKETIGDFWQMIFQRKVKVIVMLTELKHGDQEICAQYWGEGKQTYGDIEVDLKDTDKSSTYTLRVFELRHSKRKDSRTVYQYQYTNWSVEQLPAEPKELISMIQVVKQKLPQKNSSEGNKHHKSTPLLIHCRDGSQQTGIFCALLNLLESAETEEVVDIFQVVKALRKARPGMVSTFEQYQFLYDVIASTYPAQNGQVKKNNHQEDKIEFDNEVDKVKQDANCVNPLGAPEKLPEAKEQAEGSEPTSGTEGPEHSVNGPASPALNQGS
# method-description: transiently transfected CHO cells
value-kind: binding result

AB-CD45RB-XG2-439 (antibody, human IgG2, V domains shown, recombinant human IgG2 kappa; also called sc439) VH: QVQLVESGGGVVQPGRSLRLSCAASGFTFSNYGMHWVRQAPGKGLEWVAVIWYDGSKKFYADSVKGRFTISRDNSKNMQYLQMDSLRAEDTAVYYCARGGGDFDYWGQGILVTVSS VL: EIVMTQSPATLSVSPGERATLSCRASQNLSGKYLAWYQQKPGQAPSRLIYGTSTRATGVPARFSGSGSGTEFTLTISSLQSEDSAVYYCQQYNNWPPLTFGGGTKVEIK    no binding
AB-CD45RB-XG2-539 (antibody, human IgG2, V domains shown, recombinant human IgG2 kappa; also called sc539) VH: QVQLQESGPGLVKPSETLSLTCTVSGGSISGSYWSWIRQPAGKGLEWIGRIHSTGKTAYNPSLKSRVIMSLDTSKNLFSLKLTSVTAADTAVYYCARDYDFLTGYFDYWGQGTLVTVSS VL: DVVMTQSPLSLPVTLGQPASISCRSSQSLVYGDGNTYLNWFQQRPGHSPRRLIYKVSNWDSGVPDRFSGSGSGTDFTLKISRVEAEDVGIYYCMQGTHWPPTFGQGTRVEIK    no binding
AB-CD45RB-XG2-026 (antibody, human IgG2, V domains shown, recombinant human IgG2 kappa; also called sc026; 1G10 (sc026)) VH: QVQLVESGGGVVQPGRSLRLSCAASGFTFSNYGMHWVRQAPGKGLEWVAVIWYDGSNKYYADSVKGRFTISRDNSKNTLYLQMNSLRAEDTAVYYCARGGGDFDYWGQGTLVTVSS VL: EIVMTQSPATLSVSPGERVTLSCRASQTISGSYLAWYQQKPGQAPRLLIYGAFTRATGIPARFSGSGSGTEFTLTISSLQSEDFAVYYCQQYNNWPPLTFGGGTRVEIK    no binding
